System: sensory neurons
Assay type: cell-based, rat
measured.attribute: normalized percentage of cells responding to PbTx-1 with the first peak

In the examples that follow, each entry is paired with its recorded normalized percentage of cells responding to PbTx-1 with the first peak.
molecule	endpoint.result
CCC(C)[C@H](NC(=O)[C@H](CC1CCCCC1)NC(=O)c1ccno1)C(=O)N1CCC2(CCc3ccccc32)CC1 (some centres unmarked)	75.7±7.28%
CC(C)C[C@H](NC(=O)[C@H](Cc1ccccc1)NC(=O)OCc1ccccc1)C(=O)C=O	48.2±11.1%
Cc1c(C(=O)Nc2cccc(C(F)(F)F)c2)cc(-c2ccccc2)n1CCCN1CCOCC1	59.4±11.5%
Cl.Cn1cc(C2=C(c3c4n(c5ccccc35)CCC(CN)C4)C(=O)NC2=O)c2ccccc21 (centres unmarked) [BimX, Bisindolylmaleimide X hydrochloride]	did not decrease

What the record says about "C1CCC[C@H]2CCCN3CC[C@@H](CCCCCC[C@@H]4CCCN5CC[C@@H](CC1)O[C@@H]45)O[C@@H]23" : normalized percentage of cells responding to PbTx-1 with the first peak is did not decrease
